Tested on: HMLER
Test: cells
Type: cell-based, human
Settings: 72 h
Peptide text beside a SMILES is read from it.
The following compounds are shown together with reported pIC50 values.
// pIC50: -log10(molar conc.)

Solved cases (4 shown):
Returns the measured pIC50 for the input compound. Input: CC(C)C[C@H](NC(=O)CN)C(=O)N[C@@H](CC(C)C)C(=O)N[C@@H](CCCCN)C(=O)N[C@@H](CC(C)C)C(=O)N[C@@H](CC(C)C)C(=O)N[C@@H](CCCCN)C(=O)N[C@@H](CC(C)C)C(=O)N[C@@H](CC(C)C)C(=O)N[C@@H](CC(C)C)C(=O)N[C@@H](CCCCN)C(=O)N[C@@H](C)C(=O)N[C@@H](C)C(=O)NCC(=O)N[C@@H](Cc1c[nH]c2ccccc12)C(N)=O [KKK] (H-GLLKLLKLLLKAAGW-NH2)
5.80

Returns the measured pIC50 for the input compound. Input: CC(C)C[C@H](NC(=O)CN)C(=O)N[C@@H](CC(C)C)C(=O)N[C@@H](Cc1c[nH]cn1)C(=O)N[C@@H](CC(C)C)C(=O)N[C@@H](CC(C)C)C(=O)N[C@@H](CCCCN)C(=O)N[C@@H](CC(C)C)C(=O)N[C@@H](CC(C)C)C(=O)N[C@@H](CC(C)C)C(=O)N[C@@H](CCC(=O)O)C(=O)N[C@@H](C)C(=O)N[C@@H](C)C(=O)NCC(=O)N[C@@H](Cc1c[nH]c2ccccc12)C(N)=O [HKE] (H-GLLHLLKLLLEAAGW-NH2)
5.57

Returns the measured pIC50 for the input compound. Input: CC(C)C[C@H](NC(=O)CN)C(=O)N[C@@H](CC(C)C)C(=O)N[C@@H](CCCCN)C(=O)N[C@@H](CC(C)C)C(=O)N[C@@H](CC(C)C)C(=O)N[C@@H](Cc1c[nH]cn1)C(=O)N[C@@H](CC(C)C)C(=O)N[C@@H](CC(C)C)C(=O)N[C@@H](CC(C)C)C(=O)N[C@@H](CCCCN)C(=O)N[C@@H](C)C(=O)N[C@@H](C)C(=O)NCC(=O)N[C@@H](Cc1c[nH]c2ccccc12)C(N)=O [KHK] (H-GLLKLLHLLLKAAGW-NH2)
5.59

Returns the measured pIC50 for the input compound. Input: CC(C)C[C@H](NC(=O)CN)C(=O)N[C@@H](CC(C)C)C(=O)N[C@@H](CCC(=O)O)C(=O)N[C@@H](CC(C)C)C(=O)N[C@@H](CC(C)C)C(=O)N[C@@H](CCCCN)C(=O)N[C@@H](CC(C)C)C(=O)N[C@@H](CC(C)C)C(=O)N[C@@H](CC(C)C)C(=O)N[C@@H](CCC(=O)O)C(=O)N[C@@H](C)C(=O)N[C@@H](C)C(=O)NCC(=O)N[C@@H](Cc1c[nH]c2ccccc12)C(N)=O [EKE] (H-GLLELLKLLLEAAGW-NH2)
5.74

Continuing:
Returns the measured pIC50 for the input compound. Input: CC(C)C[C@H](NC(=O)CN)C(=O)N[C@@H](CC(C)C)C(=O)N[C@@H](CC(=O)O)C(=O)N[C@@H](CC(C)C)C(=O)N[C@@H](CC(C)C)C(=O)N[C@@H](CCC(=O)O)C(=O)N[C@@H](CC(C)C)C(=O)N[C@@H](CC(C)C)C(=O)N[C@@H](CC(C)C)C(=O)N[C@@H](Cc1c[nH]cn1)C(=O)N[C@@H](C)C(=O)N[C@@H](C)C(=O)NCC(=O)N[C@@H](Cc1c[nH]c2ccccc12)C(N)=O [DEH] (H-GLLDLLELLLHAAGW-NH2)
5.27

Returns the measured pIC50 for the input compound. Input: CC(C)C[C@H](NC(=O)CN)C(=O)N[C@@H](CC(C)C)C(=O)N[C@@H](CCC(=O)O)C(=O)N[C@@H](CC(C)C)C(=O)N[C@@H](CC(C)C)C(=O)N[C@@H](CCCCN)C(=O)N[C@@H](CC(C)C)C(=O)N[C@@H](CC(C)C)C(=O)N[C@@H](CC(C)C)C(=O)N[C@@H](CCCCN)C(=O)N[C@@H](C)C(=O)N[C@@H](C)C(=O)NCC(=O)N[C@@H](Cc1c[nH]c2ccccc12)C(N)=O [EKK] (H-GLLELLKLLLKAAGW-NH2)
5.76
